Catalogue of pEC50 values
# experimental.protocol: Inhibition of RIPK1 in human FADD-deficient Jurkat I 2.1 cells assessed as protection against TNFalpha-induced necroptosis measured after 24 hrs by MTS assay
In textbook form, pEC50 equals minus log to base ten of the concentration in mol/L.

As a guide, the following entries are already answered.
>  <smiles.record>
O=[N+]([O-])c1ccc2nc(Nc3ccccc3)[nH]c2c1

>  <observed.value>
5.60

$$$$
>  <smiles.record>
CCCCNc1nc2cc([N+](=O)[O-])ccc2s1

>  <observed.value>
5.33

$$$$
>  <smiles.record>
COC(=O)c1cccc2nc(NC3CCCCC3)[nH]c12

>  <observed.value>
5.05

$$$$

Now for another entry.
Look up pEC50 of Clc1ccc2nc(NC3CCCCC3)[nH]c2c1 and report it. 5.36

* * *

# experimental.protocol: Inhibition of RIPK1 in human FADD-deficient Jurkat I 2.1 cells assessed as protection against TNFalpha-induced necroptosis measured after 24 hrs by MTS assay
Catalogue of EC50 values
Express the result in µM but write the number alone.

>  <smiles.record>
CCCNc1nc2ccc([N+](=O)[O-])cc2[nH]1

>  <observed.value>
14.4

$$$$
>  <smiles.record>
CCCCNc1nc2ccc([N+](=O)[O-])cc2[nH]1

>  <observed.value>
1.7

$$$$
>  <smiles.record>
CCCCNc1nc2cccc(C(=O)OC)c2[nH]1

>  <observed.value>
18.1

$$$$
>  <smiles.record>
CCCCNc1nc2ccc([N+](=O)[O-])cc2s1

>  <observed.value>
6.9

$$$$

Now for another entry.
Look up EC50 of O=[N+]([O-])c1ccc2nc(NC3CCCCC3)[nH]c2c1 and report it. 1.04

* * *

# experimental.protocol: Inhibition of RIPK1 in human FADD-deficient Jurkat I 2.1 cells assessed as reduction in TNFalpha-induced necroptosis measured after 24 hrs by MTS assay
assay.metric: EC50 (µM)
Express the result in µM but write the number alone.

Look up EC50 of CCCCNc1nc2ccc([N+](=O)[O-])cc2[nH]1 and report it. 1.7
